# study_system: Homeobox protein Hox-A13 (Mus musculus) (UniProt Q62424)
# Sequence (Q62424 whole entry, looked up): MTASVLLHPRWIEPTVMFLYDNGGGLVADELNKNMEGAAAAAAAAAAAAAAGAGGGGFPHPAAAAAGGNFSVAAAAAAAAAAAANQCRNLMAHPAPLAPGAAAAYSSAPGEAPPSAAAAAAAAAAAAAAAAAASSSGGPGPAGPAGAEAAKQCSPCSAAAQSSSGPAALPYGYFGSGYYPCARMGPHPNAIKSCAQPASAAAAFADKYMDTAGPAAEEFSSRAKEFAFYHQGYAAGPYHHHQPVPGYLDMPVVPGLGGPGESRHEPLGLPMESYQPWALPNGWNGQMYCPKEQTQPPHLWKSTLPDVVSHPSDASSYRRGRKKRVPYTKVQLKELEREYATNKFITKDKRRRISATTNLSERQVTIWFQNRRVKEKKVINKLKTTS
# test: inhibitors of HoxA13-DNA binding, primary screen, biochemical, fluorescence polarization, labeled oligonucleotide (AID 1185)
# run_conditions: 15 min, higher = more signal, called active from +8 up or from −8 down
z-score values, listed per item
Please reply with the number alone, leaving off any unit.

Solved cases (5 shown):
COc1cc(CO)cc(I)c1O[C@H]1C=C(C(=O)NCCO)C[C@@H](N(CCN2CCOCC2)C(=O)C2CCOC2)[C@@H]1O (some centres undefined)
-7.57
CC(C)C(=C=CC[C@@H](O)c1ccccc1OCCO)CCO
-2.91
C=C(COC)/C(=C/C[C@H](OC(=O)c1ccncc1)c1ccc(OCCO)cc1)c1cnc2ccccc2c1
-4.16
CC1CC/C=C\[C@H]2OC34C=CCN(C(C)(C)C)C(=O)[C@H]3N(CCCCCCO)C(=O)[C@@H]4C2C(=O)O1 (some centres undefined)
-4.21
CN1C(=O)[C@]2(Cc3ccccc3)N=C(c3ccc(OCCCO)cc3)O[C@@H]2c2ccccc21
-4.54

QUERY: What value of measured z-score is listed for COCCOC(=O)N1C(=O)[C@@]2(c3cc(C#Cc4ccc(OC)cc4)ccc31)[C@H](c1ccc(O)cc1)N1[C@H](c3ccccc3)[C@H](c3ccccc3)OC(=O)[C@H]1[C@@H]2C(=O)NC[C@H](O)c1ccccc1 ?
RESULT: -0.934

====

z-score values, listed per item
# test: FRG1 promoter luciferase signal modulators, primary screen, FRG1 inhibition for FSHD, cell-based, C2C12 myotubes, firefly/Renilla luciferase, luminescence (AID 1084)
# run_conditions: higher = more signal, called active from +8 up or from −8 down
Please reply with the number alone, leaving off any unit.

CN1C(=O)C2C=CC(C(O)c3ccc(I)cc3)N(N3CCCCC3)C2C1=O (stereo not given)
1.14
COc1ccc(NN2C(C(O)c3ccc([N+](=O)[O-])cc3)C=CC3C(=O)N(C4CCCCC4)C(=O)C32)cc1 (stereo not given)
-0.068
Cc1ccc(C(C)CC(O)C2C=CC3C(=O)N(C)C(=O)C3N2NC(=O)OC(C)(C)C)o1 (stereo not given)
0.385
CC(C)C[C@H]1NC(=O)[C@@]23C(=O)N[C@@H](Cc4ccccc4)C2[C@H](C)[C@@]2(C)O[C@H]2C3/C=C/C/C=C\CNC(=O)[C@H](Cc2ccccc2)NC1=O (stereo not given in full)
0.688
C[C@@]1([C@@H](NC(=O)c2ccccc2)c2ccc(-c3ccccc3)cc2)C[C@H]1C1CCCCC1
2.09

QUERY: What value of measured z-score is listed for CCOC(=O)C1=CCC(c2ccccc2)N(S(=O)(=O)CC[Si](C)(C)C)C1 (stereo not given) ?
RESULT: -3.74

QUERY: What value of measured z-score is listed for CS(=O)(=O)CCOC(=O)C1=CC(CCCO)=CC(c2ccc(CN3CCCC3)cc2)N(Cc2cc3c(cc2Br)OCO3)C=C1C(=O)OCCS(C)(=O)=O (stereo not given) ?
RESULT: -0.271

QUERY: What value of measured z-score is listed for C=CCN1C(=O)[C@@]2(O[C@@H](CCO)[C@H]([Si](C)(C)c3ccc(OC)cc3)[C@H]2C)c2cc(NC(=O)c3ccc(OC)cc3)ccc21 ?
RESULT: -0.797

====

z-score values, listed per item
# test: S. cerevisiae growth modulation with rapamycin, primary screen, strain BY4716, OD600, 96 h (AID 1091); also: test concentration not given here
# run_conditions: higher = more signal, called active from +8 up or from −8 down
Please reply with the number alone, leaving off any unit.

Solved cases (3 shown):
C=C(/C(=C/C[C@@H](OC(C)=O)c1ccc(OCCO)cc1)c1cnc2ccccc2c1)C(C)C
-0.234
CC(C)(C)OC(=O)CC[C@@]1(C(N)=O)N=C(c2ccc(OCCCO)cc2)O[C@@H]1c1ccccc1
-0.399
COCCCNC(=O)[C@@]1(Cc2ccccc2)N=C(c2ccc(OCCCO)cc2)O[C@H]1c1ccccc1
-1.74

Now for the compound whose z-score we want.
QUERY: What value of measured z-score is listed for [N-]=[N+]=NCc1ccccc1[C@@H]1OC(c2ccc(OCCCO)cc2)=N[C@]1(CCS(=O)(=O)c1ccccc1)C(=O)NCCN1CCOCC1 ?
RESULT: 0.766

====

# test: PSAC antagonists in infected red cells, primary screen, cell-based, P. falciparum Indochina, OD700, 2 h (AID 1155);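 also: lysis reports solute entry through the parasite surface anion channel PSAC; channel blockers reduce lysis of infected cells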
# run_conditions: P. falciparum Indochina infected erythrocytes, osmotic lysis OD700, called active from +8 up or from −8 down
Activity calls are given as the source filed them.
Your reply should match one of these outcome classes. Y = active, N = inactive

Solved cases (5 shown):
O=C1c2ccccc2[C@](Cc2ccccc2I)(C(=O)NC2CC2)[C@H](c2ccc(CO)cc2)N1Cc1ccccc1
N
[N-]=[N+]=NCc1ccccc1C[C@]1(C(=O)N2CCOCC2)N=C(c2ccc(OCCCO)cc2)O[C@H]1c1ccccc1N=[N+]=[N-]
Y
C=CCOC(=O)[C@@H]1[C@H]2C(=O)O[C@H](c3ccccc3)[C@H](c3ccccc3)N2[C@H](c2ccc(OCCOC(=O)[C@@H]3C[C@@H]4C(=O)N[C@@H](CCCCN(C)C)C(=O)N4[C@@H]3c3ccc(O)cc3)cc2)[C@@]12C(=O)Nc1ccc(I)cc12
N
CCOC(=O)C[C@H]1[C@H](OC(=O)Cc2ccc3c(c2)OCO3)[C@@H](NC(=O)c2ccc(-c3ccccc3)cc2)c2cc(OCCCO)ccc2N1C(=O)Cc1ccc(OC)cc1
Y
COc1ccc([Si](C)(C)[C@H]2[C@H](CC(=O)N3CCC[C@H]3CO)O[C@@]3(C(=O)N(Cc4cccc(N5C(=O)c6cccc7cccc5c67)c4)c4ccccc43)[C@@H]2C)cc1
N

QUERY: Please let me know the test result on file for CCOC1=C2C(CN(S(=O)(=O)c3ccc(C)cc3)C2c2ccc(C)cc2)C2C(=O)N(c3ccccc3)C(=O)C2C1 (stereo not drawn) .
RESULT: N

QUERY: Please let me know the test result on file for COCCOC(=O)N1C(=O)[C@@]2(c3ccccc31)[C@H](c1ccccc1OCCO)N1[C@H](c3ccccc3)[C@H](c3ccccc3)OC(=O)[C@H]1[C@@H]2C(=O)Nc1nc2ccccc2s1 .
RESULT: N

QUERY: Please let me know the test result on file for C=C(C)C1C(=C)CN([C@H](CO)c2ccccc2)C1=O (stereo partly drawn) .
RESULT: N

====

composite z-score values, listed per item
# System: Wnt5a (protein binding on small-molecule microarray)
# test: Wnt5a binders on small-molecule microarray, primary screen, biophysical, 635/667 nm fluorescence (AID 1142);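 also: fluorescence read at 667 nm with signal to noise per printed feature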
# run_conditions: 635 nm fluorescence, higher = more signal
Please reply with the number alone, leaving off any unit.

QUERY: What value of measured composite z-score is listed for CC(C)(C)OC(=O)CC[C@@]1(C(N)=O)N=C(c2ccc(OCCCO)cc2)O[C@@H]1c1ccccc1 ?
RESULT: 0.22

QUERY: What value of measured composite z-score is listed for O=C1O[C@@H](c2ccccc2)[C@@H](c2ccccc2)N2[C@@H](c3ccccc3OCCO)[C@]3(C(=O)Nc4ccc(C#CC5=CCCCC5)cc43)[C@@H](C(=O)Nc3nc4ccccc4s3)[C@H]12 ?
RESULT: 0.799

QUERY: What value of measured composite z-score is listed for C=CCOC(=O)[C@H]1[C@@H]2C(=O)O[C@@H](c3ccccc3)[C@@H](c3ccccc3)N2[C@@H](c2ccc(OCCOC(=O)[C@H]3C[C@H]4C(=O)N5CCC[C@H]5C(=O)N4[C@H]3c3ccc(O)cc3)cc2)[C@]12C(=O)Nc1ccccc12 ?
RESULT: 0.753

QUERY: What value of measured composite z-score is listed for C=CCOC(=O)[C@H]1[C@@H]2C(=O)O[C@@H](c3ccccc3)[C@@H](c3ccccc3)N2[C@@H](c2ccc(OCCOC(=O)[C@@H]3C[C@@H]4C(=O)N[C@@H](CCCCN(C)C)C(=O)N4[C@@H]3c3ccc(O)cc3)cc2)[C@]12C(=O)Nc1ccc(I)cc12 ?
RESULT: 0.451

QUERY: What value of measured composite z-score is listed for COc1ccc(CCN2C(=O)[C@@]3(c4ccc([N+](=O)[O-])cc4)CC(=O)N(C4CCCCC4)[C@@H]3c3ccc(CO)cc32)cc1 ?
RESULT: -0.0463

QUERY: What value of measured composite z-score is listed for CC(C)C[C@@H]1NC(=O)[C@@H]2C[C@H](C(=O)NCCCCCN)[C@H](c3cccc(OCCO)c3)N2C1=O ?
RESULT: 0.794

QUERY: What value of measured composite z-score is listed for O=C1O[C@H](c2ccccc2)[C@H](c2ccccc2)N2[C@H]1[C@@H](C(=O)O)[C@]1(C(=O)Nc3ccc(C#CC4=CCCCC4)cc31)[C@H]2c1ccccc1OCCO ?
RESULT: 1.02

====

# study_system: Calmodulin-1 (Homo sapiens)
# test: CALM1 binders on microarrays, EGTA buffer, profiling panel, biochemical, small-molecule microarray, Cy5-labelled CALM1 (AID 1111);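 also: labelled calmodulin applied in Tris saline Tween buffer holding calcium plus EGTA and DTT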
# run_conditions: Cy5-CALM1 binding fluorescence, higher = more signal
composite z-score values, listed per item
Please reply with the number alone, leaving off any unit.

C#CCN(CC=C(C)C)[C@H](CO)c1ccccc1
-0.171

QUERY: What value of measured composite z-score is listed for [N-]=[N+]=NCc1ccccc1[C@@H]1OC(c2ccc(OCCCO)cc2)=N[C@]1(CCS(=O)(=O)c1ccccc1)C(=O)NCCN1CCOCC1 ?
RESULT: 1.65

QUERY: What value of measured composite z-score is listed for N#Cc1ccc(NN2C(C(O)c3c(F)cccc3Cl)C=CC3C(=O)N(c4ccccc4)C(=O)C32)cc1 (centres undefined) ?
RESULT: 2.51

QUERY: What value of measured composite z-score is listed for CCOC(=O)C[C@H]1[C@H](OC(=O)Cc2ccc3c(c2)OCO3)[C@@H](NC(=O)c2ccc(-c3ccccc3)cc2)c2cc(OCCCO)ccc2N1C(=O)Cc1ccc(OC)cc1 ?
RESULT: 0.644
